Target: LK35.2-hPD-L1 cells / PE-labeled PD-1-Ig (Homo sapiens)
Construct: expressed in transfected cells; host or cells: LK35.2 mouse B cell line
Sequence (Q9NZQ7 19-290): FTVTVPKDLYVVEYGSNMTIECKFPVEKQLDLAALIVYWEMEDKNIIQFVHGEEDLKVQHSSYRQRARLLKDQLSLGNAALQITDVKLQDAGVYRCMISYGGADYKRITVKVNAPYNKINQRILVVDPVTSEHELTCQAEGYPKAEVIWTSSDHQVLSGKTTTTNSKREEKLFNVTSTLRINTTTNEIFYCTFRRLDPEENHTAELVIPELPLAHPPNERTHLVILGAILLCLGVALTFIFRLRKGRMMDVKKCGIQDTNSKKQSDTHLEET
Assay: LK35.2-hPD-L1 cell binding high-content screening assay
Type: cell-based
Conditions: cluster symbol; cell line of CBA not given (LK35.2-hPD-L1 or 293T-hPD-L1); read-out: CBA IC50 cluster
Protocol: LK35.2-hPD-L1 Cell Binding High-Content Screening Assay. Phycoerythrin (PE) was covalently linked to the Ig epitope tag of human PD-1-Ig and fluorescently-labeled PD-1-Ig was used for binding studies with a mouse B cell line (LK35.2) stably over-expressing human PD-L1 (LK35.2-hPD-L1). Briefly, 3×10^3 LK35.2-hPD-L1 cells were seeded into 384 well plates in 20 ul of RPMI supplemented with 10% fetal calf serum and cultured overnight. […]
Starred links: 1 amine or outer side, 2 acyl side, 3 side chain; linkers in the order of their positions; H or OH if unused. Positions of bridges follow the written chain, without caps; N, C: chain ends. Non-standard residues stand in square brackets, D forms with d. Residues, ends and D or L forms follow the SMILES beside them. X15 = O=C([C@H](Cc1ccc(Cl)c(F)c1)N[*:1])[*:2]; Hyp = O=C(O)[C@@H]1C[C@@H](O)CN1; NMeF = CN[C@@H](Cc1ccccc1)C(=O)O; NMeNle = CCCC[C@H](NC)C(=O)O; Pip = O=C(O)[C@@H]1CCCCN1; Dap = NC[C@H](N)C(=O)O; Sar = CNCC(=O)O
observable: IC50

CCCC[C@H]1C(=O)N(C)[C@@H](CCCC)C(=O)N[C@@H](CCCNC(=N)N)C(=O)N[C@H](C(=O)NCC(N)=O)CSCC(=O)N[C@@H](Cc2ccc(O)cc2)C(=O)N2CCCC[C@H]2C(=O)N[C@@H](CC(=O)O)C(=O)N2CCC[C@H]2C(=O)N[C@@H](CN)C(=O)N[C@@H](CC(C)C)C(=O)N2C[C@H](O)C[C@H]2C(=O)N[C@@H](Cc2c[nH]c3ccccc23)C(=O)N[C@@H](CO)C(=O)N[C@@H](Cc2c[nH]c3ccccc23)C(=O)N1C [Example 1233] ({CH2CO}-Y[Pip]DP[Dap]L[Hyp]WSW[NMeNle][NMeNle]RCG-NH2; thioether N-14)
0.158 to 4.71 nM

Shifting focus to the compound that follows.
Task: For the compound shown here, CCCC[C@H]1C(=O)N(C)CC(=O)N[C@@H](CC(=O)O)C(=O)N[C@@H](C(C)C)C(=O)N(C)[C@@H](Cc2ccccc2)C(=O)N[C@@H](Cc2ccc(O)cc2)C(=O)N(C)CC(=O)N[C@@H](Cc2c[nH]c3ccccc23)C(=O)N[C@@H](Cc2ccc(O)cc2)C(=O)N[C@@H](CC(C)C)C(=O)N[C@H](C(=O)NCC(N)=O)CSCC(=O)N[C@@H](Cc2ccc(Cl)c(F)c2)C(=O)N(C)[C@@H](Cc2ccccc2)C(=O)N1C [Example 3180] ({CH2CO}-[X15][NMeF][NMeNle][Sar]DV[NMeF]Y[Sar]WYLCG-NH2; thioether N-13) , give the reported IC50.
Result: 0.158 to 4.71 nM

---

Assignment: determine reported IC50 for the given molecules.
molecular target: Human PD-L1/PD-1 (Homo sapiens, UniProt Q9NZQ7); construct: made in house; host or cells: HEK293T; experiment: HTRF PD-1-Ig/PD-L1-His binding assay (human PD-L1); details: cluster symbol; read-out: HTRF IC50 cluster
Sequence (Q9NZQ7 with tags, fused parts or gaps): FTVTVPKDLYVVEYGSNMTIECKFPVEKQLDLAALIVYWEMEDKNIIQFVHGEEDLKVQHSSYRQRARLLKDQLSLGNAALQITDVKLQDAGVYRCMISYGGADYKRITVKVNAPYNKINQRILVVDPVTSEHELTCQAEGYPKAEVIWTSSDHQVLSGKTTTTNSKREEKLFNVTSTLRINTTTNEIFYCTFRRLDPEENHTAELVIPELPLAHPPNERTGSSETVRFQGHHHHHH
Positions of bridges follow the written chain, without caps; N, C: chain ends. Non-standard residues stand in square brackets, D forms with d. Residues, ends and D or L forms follow the SMILES beside them. ξ: configuration not given here. Tyr(3,5-Br2) = N[C@@H](Cc1cc(Br)c(O)c(Br)c1)C(=O)O; Tyr(3-I) = N[C@@H](Cc1ccc(O)c(I)c1)C(=O)O; NMeF = CN[C@@H](Cc1ccccc1)C(=O)O; NMeNle = CCCC[C@H](NC)C(=O)O; NMeM = CN[C@@H](CCSC)C(=O)O; NMeA = CN[C@@H](C)C(=O)O; Dap = NC[C@H](N)C(=O)O; ξC = NC(CS)C(=O)O; Sar = CNCC(=O)O

CCCC[C@H]1C(=O)N[C@@H](CCCNC(=N)N)C(=O)NC(C(=O)NCC(N)=O)CSCC(=O)N[C@@H](Cc2ccc(O)cc2)C(=O)N(C)[C@@H](C)C(=O)N[C@@H](CC(N)=O)C(=O)N2CCC[C@H]2C(=O)N[C@@H](CN)C(=O)N[C@@H](CC(C)C)C(=O)N2CCC[C@H]2C(=O)N[C@@H](Cc2c[nH]c3ccccc23)C(=O)N[C@@H](CO)C(=O)N[C@@H](Cc2c[nH]c3ccccc23)C(=O)N(C)[C@@H](CCSC)C(=O)N1C (stereo partly drawn) [Example 9089] ({CH2CO}-Y[NMeA]NP[Dap]LPWSW[NMeM][NMeNle]R[ξC]G-NH2; thioether N-14)
0.385 to 6.74 nM
CCCC[C@H]1C(=O)N(C)CC(=O)N[C@@H](CC(=O)O)C(=O)N[C@@H](C(C)C)C(=O)N(C)[C@@H](Cc2ccccc2)C(=O)N[C@@H](Cc2ccc(O)c(I)c2)C(=O)N(C)CC(=O)N[C@@H](Cc2c[nH]c3ccccc23)C(=O)N[C@@H](Cc2ccc(O)cc2)C(=O)N[C@@H](CC(C)C)C(=O)N[C@H](C(=O)NCC(N)=O)CSCC(=O)N[C@@H](Cc2ccccc2)C(=O)N(C)[C@@H](Cc2ccccc2)C(=O)N1C [Example 3111] ({CH2CO}-F[NMeF][NMeNle][Sar]DV[NMeF][Tyr(3-I)][Sar]WYLCG-NH2; thioether N-13)
> 30.5 nM

Shifting focus to the molecule that follows.
Task: For the molecule shown here, CCCC[C@H]1C(=O)N(C)CC(=O)N[C@@H](CC(=O)O)C(=O)N[C@@H](C(C)C)C(=O)N(C)[C@@H](Cc2ccccc2)C(=O)N[C@@H](Cc2ccc(O)cc2)C(=O)N(C)CC(=O)N[C@@H](Cc2c[nH]c3ccccc23)C(=O)N[C@@H](Cc2cc(Br)c(O)c(Br)c2)C(=O)N[C@@H](CC(C)C)C(=O)N[C@H](C(=O)NCC(N)=O)CSCC(=O)N[C@@H](Cc2ccccc2)C(=O)N(C)[C@@H](Cc2ccccc2)C(=O)N1C [Example 3112] ({CH2CO}-F[NMeF][NMeNle][Sar]DV[NMeF]Y[Sar]W[Tyr(3,5-Br2)]LCG-NH2; thioether N-13) , give the reported IC50.
Result: > 30.5 nM
